FYI, the data here is from the supplement of paper PMC10567573.

B1: ZNF449 (parent)
chain: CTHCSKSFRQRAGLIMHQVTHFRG

variants of: B1; assay: protein stability index of a GFP-peptide fusion (GPS, HEK-293T) (PSI 1-6); higher = more stable; conditions: c terminus: a fixed tail appended;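 also: lentivirally expressed fusions sorted by FACS into six bins by GFP to DsRed ratio, PSI derived from sequencing read proportions per bin multiplied by bin number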
The entries below come with measured protein stability index values attached.
measured_endpoint: protein stability index

>>> measured_result("R23Y")
2.36
>>> measured_result("S7A")
2.14
>>> measured_result("V19E")
3.08
>>> measured_result("Q18Y")
3.18
>>> measured_result("R9C")
2.33
